- SYSTEM_UNDER_TEST: S1P1 receptor (Homo sapiens, UniProt P21453)
- Sequence (P21453 whole entry): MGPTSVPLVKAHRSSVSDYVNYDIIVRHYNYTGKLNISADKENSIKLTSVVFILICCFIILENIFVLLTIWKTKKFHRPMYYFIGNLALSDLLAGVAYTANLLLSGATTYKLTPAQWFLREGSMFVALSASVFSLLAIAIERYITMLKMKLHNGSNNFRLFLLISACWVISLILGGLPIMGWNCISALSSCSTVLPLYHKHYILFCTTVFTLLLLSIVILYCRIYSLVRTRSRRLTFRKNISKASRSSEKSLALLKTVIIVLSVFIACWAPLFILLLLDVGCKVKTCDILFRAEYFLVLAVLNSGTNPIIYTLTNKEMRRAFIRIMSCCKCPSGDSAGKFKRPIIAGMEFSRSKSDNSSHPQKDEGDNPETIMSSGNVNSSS
- EXPERIMENTAL_PROTOCOL: 35S-GTPγS binding, membranes from CHO cells expressing S1P1
- MEASUREMENT_PARAMETERS: CHO cell membranes expressing S1P1
pEC50: −log10 of the molar value.
Criterion: pEC50 meeting or surpassing 7. Met: TRUE. Not met: FALSE.

[in] // inclusive: pEC50 at least 7? input: Fc1ccccc1-c1noc(-c2nnn(-c3ccccc3F)c2-c2ccccc2)n1
[out] TRUE

[in] Try Fc1ccccc1-n1nnc(-c2nc(-c3cccnc3)no2)c1C1CCCO1 (centres unmarked) next.
[out] FALSE

[in] Proceed to COCc1c(-c2nc(-c3ccccc3OC)no2)nnn1-c1ccccc1F
[out] FALSE

[in] Now try COCc1c(-c2nc(-c3ccc(Cn4cccn4)cc3)no2)nnn1-c1ccccc1F .
[out] FALSE
